pKi: −log10 of the molar value.
Note to self: these compounds have pKi reported for Coagulation factor XI (Homo sapiens) in various publications.
Test readout: pKi

[P] COC(=O)Nc1ccc2c(c1)NC(=O)CC(C)CC[C@H](NC(=O)/C=C/c1cc(Cl)ccc1-n1cnnn1)c1nc-2c[nH]1 (single isomer, unassigned; diastereomer A)
[Q] COC(=O)Nc1ccc(-c2cc([C@H](Cc3ccccc3)NC(=O)/C=C/c3cc(Cl)ccc3-n3cnnn3)ccn2)cc1
[R] Cc1nc(-c2cccc(Cl)c2F)n(O)c1C(=O)N[C@@H](Cc1ccccc1)C(=O)Nc1ccc(CC(=O)O)cc1
IN: Endpoint returns the given compounds ordered by ascending pKi. Respond with an ordered listing of the labels, as requested.
OUT: R, P, Q
(R: 5.16, P: 7.44, Q: 7.96)
